testedOn: human recombinant adrenergic α1D receptor (Homo sapiens, UniProt P25100)
Construct: expressed in transfected cells; host or cells: HEK-293 cells
Sequence (P25100 whole entry): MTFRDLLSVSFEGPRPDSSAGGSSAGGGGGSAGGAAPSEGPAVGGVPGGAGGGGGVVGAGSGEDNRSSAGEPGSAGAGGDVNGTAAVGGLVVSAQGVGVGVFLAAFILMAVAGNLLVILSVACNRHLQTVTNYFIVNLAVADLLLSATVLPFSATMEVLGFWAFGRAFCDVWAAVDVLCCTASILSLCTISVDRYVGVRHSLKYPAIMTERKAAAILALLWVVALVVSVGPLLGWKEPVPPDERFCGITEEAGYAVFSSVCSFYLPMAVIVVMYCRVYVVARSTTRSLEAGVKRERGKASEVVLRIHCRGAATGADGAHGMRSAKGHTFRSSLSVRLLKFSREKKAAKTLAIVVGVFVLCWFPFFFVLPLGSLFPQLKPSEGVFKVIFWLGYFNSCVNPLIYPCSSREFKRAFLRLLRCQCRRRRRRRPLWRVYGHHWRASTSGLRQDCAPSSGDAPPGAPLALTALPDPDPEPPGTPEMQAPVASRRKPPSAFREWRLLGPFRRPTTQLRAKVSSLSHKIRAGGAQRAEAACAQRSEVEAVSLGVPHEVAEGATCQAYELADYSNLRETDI
testDescription: Adrenergic α1D radioligand binding ([3H]Prozosin)
Set-up: concentration or dose not given beside the values
runParameters: percent inhibition of specific binding
observationType: Inhibition of ligand binding, Adren. alpha1D (%)

{"columns": ["molecule", "measuredNumber"],
 "data": [
  ["CN1CCc2c(c3cc(Cl)ccc3n2CC(=O)N2CCCCC2)C1", 10],
  ["Cc1ccc(CCn2c3c(c4cc(C(F)(F)F)ccc42)CN(C)CC3)cn1", 13],
  ["CN1CCc2c(c3cc(C(F)(F)F)ccc3n2CCc2ccccc2)C1", 75],
  ["CCc1ccc2c(c1)c1c(n2CCc2ccc(C)nc2)CCN(C)C1", 89],
  ["Cc1ccc(CCn2c3c(c4cc(Cl)c(F)cc42)CN(C)CC3)cn1", 81],
  ["Cc1ccc2c(c1)c1c(n2CCc2ccc(C(=O)O)nc2)CCN(C)C1", 2],
  ["Cc1ccc2c(c1)c1c(n2CCc2ccc(C(=O)O)nc2)CCNC1", 3],
  ["Cc1ccc2c(c1)c1c(n2Cc2ccc(C)nc2)CCN(C)C1", 25],
  ["CC1CN(C(=O)Cn2c3c(c4cc(Cl)ccc42)CN(C)CC3)CC(C)N1 (stereo not drawn)", 1],
  ["CN1CCc2c(c3cc(Cl)ccc3n2CCc2cccnc2)C1", 84],
  ["Cc1ncc(CCn2c3c(c4cc(C(C)C)ccc42)CN(C)CC3)cn1", 71],
  ["CN1CCc2c(c3cc(OC(F)(F)F)ccc3n2CCc2ccc(C(F)(F)F)nc2)C1", "−3"],
  ["CC(C)c1ccc(CCn2c3c(c4cc(Cl)ccc42)CN(C)CC3)cn1", 94],
  ["CN1CCc2c(c3cc(Cl)ccc3n2CCc2ccccc2)C1", 87],
  ["CN1CCc2c(c3cc(Cl)ccc3n2CCc2ccc(Cl)cc2)C1", 92],
  ["Cc1ccc2c(c1)c1c(n2CCc2ccc(C)nc2)CCN(C)C1 [Dimebon, dimebon, reference compound]", 91],
  ["Cc1cnc(CCn2c3c(c4cc(Cl)ccc42)CN(C)CC3)cn1", 73],
  ["CCOc1ccc(CCn2c3c(c4cc(C)ccc42)CN(C)CC3)cc1", 110]
]}

====

testedOn: Serotonin (5-Hydroxytryptamine) 5-HT7 (Homo sapiens, UniProt P34969)
Construct: expressed in transfected cells; host or cells: CHO cells
Sequence (P34969 whole entry): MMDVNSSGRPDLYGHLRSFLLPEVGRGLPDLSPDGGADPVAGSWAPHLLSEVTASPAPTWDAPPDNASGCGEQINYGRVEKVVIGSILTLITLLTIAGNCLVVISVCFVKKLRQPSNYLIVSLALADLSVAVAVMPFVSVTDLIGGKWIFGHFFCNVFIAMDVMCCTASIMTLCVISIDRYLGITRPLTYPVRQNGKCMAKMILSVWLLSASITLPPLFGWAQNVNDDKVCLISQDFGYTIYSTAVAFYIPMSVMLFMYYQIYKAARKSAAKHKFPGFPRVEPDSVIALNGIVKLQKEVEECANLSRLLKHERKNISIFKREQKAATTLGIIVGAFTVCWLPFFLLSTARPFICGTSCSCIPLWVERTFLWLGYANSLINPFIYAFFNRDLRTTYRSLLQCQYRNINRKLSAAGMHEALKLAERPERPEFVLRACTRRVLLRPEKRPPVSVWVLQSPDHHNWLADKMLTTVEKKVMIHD
testDescription: Serotonin 5-HT7 radioligand binding ([3H]LSD)
Set-up: concentration or dose not given beside the values
runParameters: percent inhibition of specific binding
Outcome label depends on Inhibition of ligand binding, Ser. 5-HT7 relative to 40%: at/above gives criterion met, below gives criterion not met.

{"columns": ["compound", "classAssignment"],
 "data": [
  ["Cc1ccc2c(c1)c1c(n2CCc2ccccc2F)CCN(C)C1 [Compound 34]", "criterion met"],
  ["CCN1CCc2c(c3ccccc3n2CCc2ccncc2)C1 [Compound 5]", "criterion not met"],
  ["CCN1CCc2c(c3ccccc3n2CCc2ccccc2)C1 [Compound 4]", "criterion met"],
  ["Cc1ccc2c(c1)c1c(n2CCC(=O)N2CCC(NC(=O)OC(C)(C)C)CC2)CCN(C)C1 [Compound 393]", "criterion not met"],
  ["Cc1ccc2c(c1)c1c(n2Cc2ccc(C)nc2)CCN(C)C1 [Compound 139]", "criterion met"]
]}

Recorded values, source patent US9096591B2.
